These data points were gathered from ChEMBL document CHEMBL1201862.

- System: SK-MEL-5
- assay summary: NCI tumour cell line growth inhibition, 48 h
The source made the active and inactive calls. Cut-off read from the data, not from the text of the source: active = GI50 up to about 1.1 µM and inactive = higher.
Please reply with one of these outcomes: 1 (active), 0 (inactive)

### Prompt Field: outcome | Entry: COc1cccc2c1C(=O)c1c(O)c3c(c(O)c1C2=O)C[C@@](O)(C(C)=O)C[C@@H]3OC1CC(N(C)C)C(O)C(C)O1 (stereo not given in full)
### Response 1

### Prompt Call for entry O=C(CCC1CCCCC1)NCc1ccc(C(=O)O)cc1 :
### Response 0

### Prompt Assay result, entry CC1=C2C(=O)NN=C2CCN1c1ccc(Br)cc1 — outcome?
### Response 0

### Prompt Called result for O=C(/C=C/c1ccccc1)c1cc(CN2CCOCC2)c(O)c(CN2CCOCC2)c1
### Response 0

### Prompt Dear colleague, could you share the recorded outcome for O=C(n1[nH]c(=O)n(-c2ccc([N+](=O)[O-])cc2)c1=O)C(Cl)(Cl)Cl when you have a moment?
### Response 0
